Molecular target: Cytochrome P450 1A2 (Homo sapiens);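 further: PubChem cytochrome P450 panel assay, CYP1A2 panel member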
Sequence (P05177 whole entry): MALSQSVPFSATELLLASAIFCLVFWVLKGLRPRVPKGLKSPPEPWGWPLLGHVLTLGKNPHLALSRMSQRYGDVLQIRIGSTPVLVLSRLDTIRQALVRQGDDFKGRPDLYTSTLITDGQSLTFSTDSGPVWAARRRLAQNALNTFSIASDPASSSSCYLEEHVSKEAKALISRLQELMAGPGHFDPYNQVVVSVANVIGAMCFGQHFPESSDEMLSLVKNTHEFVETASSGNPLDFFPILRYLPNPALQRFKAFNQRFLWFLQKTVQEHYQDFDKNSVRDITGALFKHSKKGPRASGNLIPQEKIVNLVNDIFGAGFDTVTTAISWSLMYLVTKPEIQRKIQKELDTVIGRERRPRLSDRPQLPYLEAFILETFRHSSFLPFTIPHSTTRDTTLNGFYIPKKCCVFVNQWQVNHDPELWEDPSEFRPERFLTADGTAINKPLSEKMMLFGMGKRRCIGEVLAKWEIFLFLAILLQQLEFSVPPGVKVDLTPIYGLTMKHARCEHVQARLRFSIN
value-kind: AC50

Check out these entries, answers already filled in.
>  <compound>
COc1cc2ccc(=O)oc2cc1O [SCOPOLETIN]

>  <AC50>
5.01 µM (inconclusive)

$$$$
>  <compound>
Cc1noc(C)c1C(=O)N1CCC2(CCCN(C(=O)Nc3cccc(F)c3)C2)CC1

>  <AC50>
15.8 µM (inconclusive)

$$$$
>  <compound>
CC(C)(C)c1nc(SCC(=O)Nc2ccc3c(c2)OCCO3)c2ccccc2n1

>  <AC50>
10 µM (inconclusive)

$$$$
>  <compound>
COC(=O)c1cccc(NC(=O)/C=C/c2cccc([N+](=O)[O-])c2)c1

>  <AC50>
2.24 µM (inconclusive)

$$$$

Next compound, AC50 to be filled in.
Recorded AC50 (compound O=c1oc2ccccc2c(O)c1Cc1c(O)c2ccccc2oc1=O [DICUMAROL] ): 12.6 µM (inconclusive)

Values were extracted from ChEMBL document CHEMBL1201862.
